Target: Tyrosine-protein kinase BTK (Homo sapiens)
Sequence (Q06187 whole entry): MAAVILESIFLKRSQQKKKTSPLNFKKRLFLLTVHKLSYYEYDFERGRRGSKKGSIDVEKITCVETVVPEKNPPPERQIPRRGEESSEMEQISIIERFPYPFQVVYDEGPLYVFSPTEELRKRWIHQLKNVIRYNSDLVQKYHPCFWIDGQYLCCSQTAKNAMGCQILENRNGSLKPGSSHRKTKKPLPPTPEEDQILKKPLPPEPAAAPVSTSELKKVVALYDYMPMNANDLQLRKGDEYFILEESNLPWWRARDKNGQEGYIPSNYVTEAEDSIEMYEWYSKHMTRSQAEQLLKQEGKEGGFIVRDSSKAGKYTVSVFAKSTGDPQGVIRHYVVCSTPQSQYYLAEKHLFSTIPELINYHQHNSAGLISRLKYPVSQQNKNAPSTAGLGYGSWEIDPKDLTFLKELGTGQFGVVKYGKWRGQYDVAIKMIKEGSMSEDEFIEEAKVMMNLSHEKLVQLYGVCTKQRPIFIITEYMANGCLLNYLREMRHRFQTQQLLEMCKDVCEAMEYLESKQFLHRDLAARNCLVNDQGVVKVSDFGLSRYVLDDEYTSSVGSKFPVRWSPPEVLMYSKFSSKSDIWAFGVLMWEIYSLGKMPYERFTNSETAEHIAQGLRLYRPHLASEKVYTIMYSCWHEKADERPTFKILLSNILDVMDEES
Assay: Inhibition of full length human His-tagged BTK expressed in baculovirus expression system using GEEPLYWSFPAKKK-NH2 as substrate pretreated for 120 mins followed by ATP addition measured after 10 mins by topcount scintillation counting analysis
TEST_READOUT: pEC50
Scale: pEC50 equals -log10([C]), with [C] in mol/L.

Query: API: value(readout= pEC50, system= Tyrosine-protein kinase BTK (Homo sapiens), query= "C=CC(=O)Nc1cccc(CNc2cc(Nc3ccccc3)ncc2C(N)=O)c1" )
Reply: 5.80

----------
Biological target: Tyrosine-protein kinase JAK2 (Homo sapiens, UniProt O60674)
Sequence (O60674 whole entry): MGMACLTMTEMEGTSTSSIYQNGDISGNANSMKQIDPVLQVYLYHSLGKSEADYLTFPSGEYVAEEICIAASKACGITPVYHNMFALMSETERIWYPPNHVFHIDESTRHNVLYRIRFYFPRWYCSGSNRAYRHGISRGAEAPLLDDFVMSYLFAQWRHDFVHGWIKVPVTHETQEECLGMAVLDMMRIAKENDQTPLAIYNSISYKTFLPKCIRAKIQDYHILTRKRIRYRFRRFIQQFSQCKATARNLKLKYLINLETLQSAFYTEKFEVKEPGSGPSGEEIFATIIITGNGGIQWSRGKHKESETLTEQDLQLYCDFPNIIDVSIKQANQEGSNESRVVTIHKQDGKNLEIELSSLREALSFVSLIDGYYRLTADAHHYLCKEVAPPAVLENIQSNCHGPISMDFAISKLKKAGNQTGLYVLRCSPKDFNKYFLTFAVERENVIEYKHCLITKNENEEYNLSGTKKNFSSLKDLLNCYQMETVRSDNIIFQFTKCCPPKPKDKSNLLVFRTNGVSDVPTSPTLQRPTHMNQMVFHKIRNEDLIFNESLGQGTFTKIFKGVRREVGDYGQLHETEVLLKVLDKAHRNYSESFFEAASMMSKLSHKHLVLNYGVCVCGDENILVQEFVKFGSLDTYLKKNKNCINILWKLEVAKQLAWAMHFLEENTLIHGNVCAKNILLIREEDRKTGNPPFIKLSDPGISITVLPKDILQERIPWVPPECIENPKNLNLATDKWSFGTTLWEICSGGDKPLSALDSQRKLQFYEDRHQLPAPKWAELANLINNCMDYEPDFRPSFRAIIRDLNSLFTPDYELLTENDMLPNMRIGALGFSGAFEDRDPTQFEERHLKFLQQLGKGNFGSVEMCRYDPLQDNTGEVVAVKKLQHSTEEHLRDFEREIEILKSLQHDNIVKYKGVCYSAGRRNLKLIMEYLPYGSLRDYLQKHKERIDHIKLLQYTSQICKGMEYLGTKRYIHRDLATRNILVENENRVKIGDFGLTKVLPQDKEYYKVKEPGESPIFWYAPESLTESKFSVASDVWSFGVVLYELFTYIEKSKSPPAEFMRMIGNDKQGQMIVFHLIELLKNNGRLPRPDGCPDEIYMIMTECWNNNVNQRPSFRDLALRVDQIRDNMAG
Assay: Inhibition of JAK2 in human TF1 cells assessed as reduction in EPO-induced STAT5A phosphorylation pretreated for 30 mins followed by EPO addition measured after 10 mins by ELISA
Type: cell-based
TEST_READOUT: IC50 (µM)
# number only, unit µM dropped from output

Query: Value lookup for IC50; key = "C=CC(=O)Nc1cccc(CNc2cc(Nc3ccccc3)ncc2C(N)=O)c1"
Reply: 11
